Provenance of the data: paper PMC9953885

Tested on: human pancreatic lipase (hPL) (Homo sapiens, UniProt P16233)
Construct: gene PNLIP
Test parameters: 10 µM; inhibitor
API: label(entry) gives 1.0 if the entry's % of control remaining is strictly smaller than 90%; on equality or larger values it gives 0.0.

> print(dat)
                                   compound                                 tested.on  answer.label
1  CC(C)=CC[C@@H](O)C1=CC(=O)c2c(O)ccc(O)c2C1=O [Shikonin]  human pancreatic lipase (hPL) (Homo sapiens, UniProt P16233)           0.0
2  COc1cc(-c2oc3cc(O)cc(O)c3c(=O)c2O[C@@H]2O[C@H](CO)[C@@H](O)[C@H](O)[C@H]2O)ccc1O [Isorhamnetin-3-glucoside]  human pancreatic lipase (hPL) (Homo sapiens, UniProt P16233)           0.0
3  C#C[C@]1(O)CC[C@H]2[C@@H]3CCC4=CC(=O)CC[C@@H]4[C@H]3C(=C)C[C@@]21CC [Etonogestrel]  human pancreatic lipase (hPL) (Homo sapiens, UniProt P16233)           1.0
4  O=C1[C@H](CC[C@H](O)c2ccc(F)cc2)[C@@H](c2ccc(O)cc2)N1c1ccc(F)cc1 [Ezetimibe]  human pancreatic lipase (hPL) (Homo sapiens, UniProt P16233)           0.0
5  O=C(Cc1ccccc1F)C1CC1 [Cyclopropyl 2-fluorobenzyl ketone]  human pancreatic lipase (hPL) (Homo sapiens, UniProt P16233)           0.0
6  O=C(CCc1ccc(O)cc1)c1c(O)cc(O)cc1O[C@@H]1O[C@H](CO)[C@@H](O)[C@H](O)[C@H]1O [Phlorizin dihydrate]  human pancreatic lipase (hPL) (Homo sapiens, UniProt P16233)           1.0

* * *

Tested on: human pancreatic lipase (hPL) (Homo sapiens)
Construct: gene PNLIP
Test parameters: 10 µM; inhibitor
Structures can show the parent of a compound that is named as a salt.

Compound	Unit label	% of control remaining
NCCc1ccc(O)c(O)c1 [3-Hydroxytyramine hydrochloride]	%	86.11
CCOC(=O)C1=C(COCCN)NC(C)=C(C(=O)OC)C1c1ccccc1Cl (stereo not shown)	%	85.85
C[C@@H]1C(=O)O[C@H]2[C@H](O)[C@@]34[C@H]5C[C@@H](C(C)(C)C)[C@]36[C@@H](OC(=O)[C@@H]6O)O[C@@]4(C(=O)O5)[C@@]12O [Ginkgolide B]	%	120.07
O=C1C([C@@H]2O[C@H](CO)[C@@H](O)[C@H](O)[C@H]2O)=C(O)/C(=C(O)/C=C/c2ccc(O)cc2)C(=O)C1(O)[C@@H]1O[C@H](CO)[C@@H](O)[C@H](O)[C@H]1O (stereo partly shown) [Hydroxysafflor yellow A]	%	76.59
O=C1C[C@@H](c2ccccc2)Oc2cc(O)cc(O)c21	%	91.25
O=C(O)/C=C/c1ccc(O)cc1	%	98.98
COc1cc(O)c2c(=O)cc(-c3ccc(OC)c(-c4c(O)cc(O)c5c(=O)cc(-c6ccc(O)cc6)oc45)c3)oc2c1	%	39.42

* * *

Tested on: human pancreatic lipase (hPL) (Homo sapiens)
Construct: gene PNLIP
Sequence (P16233 17-465): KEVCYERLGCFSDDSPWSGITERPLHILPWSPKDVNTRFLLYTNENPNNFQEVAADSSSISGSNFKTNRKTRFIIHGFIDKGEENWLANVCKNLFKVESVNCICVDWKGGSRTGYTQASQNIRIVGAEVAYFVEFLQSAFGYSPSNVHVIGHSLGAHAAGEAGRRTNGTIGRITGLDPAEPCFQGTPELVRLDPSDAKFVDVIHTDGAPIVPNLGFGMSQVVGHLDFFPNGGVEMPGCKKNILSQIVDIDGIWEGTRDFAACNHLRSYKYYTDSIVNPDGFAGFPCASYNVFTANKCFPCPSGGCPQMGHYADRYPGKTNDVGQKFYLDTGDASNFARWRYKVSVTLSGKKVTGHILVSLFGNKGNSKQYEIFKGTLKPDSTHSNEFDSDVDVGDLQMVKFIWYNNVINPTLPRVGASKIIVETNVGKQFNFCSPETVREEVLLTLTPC
Test parameters: 10 µM; inhibitor
Where a name gives a salt, the structure may show the parent alone.
Reported endpoint: % of control remaining (%)

> print(dat)
                                   compound                                 tested.on       reported.endpoint  observed.result
1  CN(C/C=C/C#CC(C)(C)C)Cc1cccc2ccccc12 [Terbinafine Hydrochloride]  human pancreatic lipase (hPL) (Homo sapiens)  % of control remaining            91.01
2  Cc1nc(Nc2ncc(C(=O)Nc3c(C)cccc3Cl)s2)cc(N2CCN(CCO)CC2)n1  human pancreatic lipase (hPL) (Homo sapiens)  % of control remaining            91.97
3  CC(C)OC(=O)OCOP(=O)(CO[C@H](C)Cn1cnc2c(N)ncnc21)OCOC(=O)OC(C)C  human pancreatic lipase (hPL) (Homo sapiens)  % of control remaining            91.86
4  CCOC(=O)C1=C[C@@H](OC(CC)CC)[C@H](NC(C)=O)[C@@H](N)C1 [Oseltamivir phosphate]  human pancreatic lipase (hPL) (Homo sapiens)  % of control remaining           101.77
5  O=c1c(O)c(-c2cc(O)c(O)c(O)c2)oc2cc(O)cc(O)c12  human pancreatic lipase (hPL) (Homo sapiens)  % of control remaining            56.43
6  COc1cc2c(cc1OC)-c1c(C)c3ccc(OC)c(OC)c3c[n+]1CC2 [Dehydrocorydaline]  human pancreatic lipase (hPL) (Homo sapiens)  % of control remaining           123.69
7  Cc1ccc(-c2cc(C(F)(F)F)nn2-c2ccc(S(N)(=O)=O)cc2)cc1  human pancreatic lipase (hPL) (Homo sapiens)  % of control remaining            90.67
8  COc1cc2c(=O)c(-c3ccc(O)cc3)coc2cc1O[C@@H]1O[C@H](CO)[C@@H](O)[C@H](O)[C@H]1O  human pancreatic lipase (hPL) (Homo sapiens)  % of control remaining            99.85

* * *

# % of control remaining per record follows
Tested on: human pancreatic lipase (hPL) (Homo sapiens, UniProt P16233)
Construct: gene PNLIP
Sequence (P16233 17-465): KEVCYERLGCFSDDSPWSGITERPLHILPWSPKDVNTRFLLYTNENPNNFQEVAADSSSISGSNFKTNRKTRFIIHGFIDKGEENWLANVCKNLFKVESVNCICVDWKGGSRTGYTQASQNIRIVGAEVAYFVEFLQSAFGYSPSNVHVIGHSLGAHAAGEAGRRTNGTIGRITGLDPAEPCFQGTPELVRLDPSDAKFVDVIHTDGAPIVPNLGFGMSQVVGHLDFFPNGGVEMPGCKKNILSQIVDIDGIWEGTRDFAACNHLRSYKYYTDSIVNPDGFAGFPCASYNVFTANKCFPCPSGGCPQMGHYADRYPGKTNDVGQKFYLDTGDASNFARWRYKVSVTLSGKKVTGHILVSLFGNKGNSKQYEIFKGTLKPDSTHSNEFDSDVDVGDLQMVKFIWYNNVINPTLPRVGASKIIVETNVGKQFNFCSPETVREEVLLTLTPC
Test parameters: 10 µM; inhibitor
Structures can show the parent of a compound that is named as a salt.

Molecule	% of control remaining [%]
NCC[C@H](O)C(=O)N[C@@H]1C[C@H](N)[C@@H](O[C@H]2O[C@H](CN)[C@@H](O)[C@H](O)[C@H]2O)[C@H](O)[C@H]1O[C@H]1O[C@H](CO)[C@@H](O)[C@H](N)[C@H]1O [Amikacin]	73.77
COC(=O)N[C@H](C(=O)N[C@@H](Cc1ccccc1)[C@@H](O)CN(Cc1ccc(-c2ccccn2)cc1)NC(=O)[C@@H](NC(=O)OC)C(C)(C)C)C(C)(C)C [Atazanavir]	79.92
COc1ccc2[nH]c([S+]([O-])Cc3ncc(C)c(OC)c3C)nc2c1 (centres unmarked) [Omeprazole]	94.84
CC(=O)O[C@@H]1C[C@H](O)[C@@]23CO[C@@H](O)[C@]1(C)[C@@H]2C[C@@H](O)[C@]1(C)[C@@H]3C(=O)[C@H](OC(C)=O)[C@@]2(C)[C@H](c3ccoc3)C[C@H]3O[C@]321 [Toosendanin]	72.37
COc1cc2/c(=N/c3ccc(Br)cc3F)nc[nH]c2cc1OCC1CCN(C)CC1 [Vandetanib]	104.95
O=P1(N(CCCl)CCCl)NCCCO1 (centres unmarked) [Cyclophosphamide]	91.59
CC1=C(C(=O)O)N2C(=O)[C@@H](NC(=O)[C@H](N)c3ccccc3)[C@H]2SC1 [Cephalexin]	109.58
COc1cc(O)cc2c1C(=O)C[C@@H](c1ccccc1)O2 [Alpinetin]	107.78
N=C(N)NC(=O)c1nc(Cl)c(N)nc1N [Amiloride hydrochloride]	109.84
O=c1cc(-c2ccc(O)cc2)oc2cc(O)cc(O)c12 [Apigenin]	102.46
CN(C)CCCN1c2ccccc2CCc2ccccc21 [Imipramine hydrochloride]	92.51
CC(C)Oc1ccc2c(=O)c(-c3ccccc3)coc2c1 [Ipriflavone]	84.50
O=C(O)CCc1nc(-c2ccccc2)c(-c2ccccc2)o1 [Oxaprozin]	81.83
O=c1cc(-c2ccccc2)oc2cc(O)c(O)c(O)c12 [Baicalein]	48.80
O=C1c2c(O)cc(O)cc2O[C@H](c2cc(O)c(O)c(O)c2)[C@H]1O [Dihydromyricetin]	95.62
CC(C)c1cc2c(c(O)c1O)[C@@]13CCCC(C)(C)[C@@H]1C[C@@H]2OC3=O [h9, carnosol]	4.20
CC(C(=O)O)c1cccc(Oc2ccccc2)c1 (centres unmarked) [Fenoprofen]	91.13
